Target: Histone-lysine N-methyltransferase NSD3 (Homo sapiens, UniProt Q9BZ95)
Sequence (Q9BZ95 whole entry): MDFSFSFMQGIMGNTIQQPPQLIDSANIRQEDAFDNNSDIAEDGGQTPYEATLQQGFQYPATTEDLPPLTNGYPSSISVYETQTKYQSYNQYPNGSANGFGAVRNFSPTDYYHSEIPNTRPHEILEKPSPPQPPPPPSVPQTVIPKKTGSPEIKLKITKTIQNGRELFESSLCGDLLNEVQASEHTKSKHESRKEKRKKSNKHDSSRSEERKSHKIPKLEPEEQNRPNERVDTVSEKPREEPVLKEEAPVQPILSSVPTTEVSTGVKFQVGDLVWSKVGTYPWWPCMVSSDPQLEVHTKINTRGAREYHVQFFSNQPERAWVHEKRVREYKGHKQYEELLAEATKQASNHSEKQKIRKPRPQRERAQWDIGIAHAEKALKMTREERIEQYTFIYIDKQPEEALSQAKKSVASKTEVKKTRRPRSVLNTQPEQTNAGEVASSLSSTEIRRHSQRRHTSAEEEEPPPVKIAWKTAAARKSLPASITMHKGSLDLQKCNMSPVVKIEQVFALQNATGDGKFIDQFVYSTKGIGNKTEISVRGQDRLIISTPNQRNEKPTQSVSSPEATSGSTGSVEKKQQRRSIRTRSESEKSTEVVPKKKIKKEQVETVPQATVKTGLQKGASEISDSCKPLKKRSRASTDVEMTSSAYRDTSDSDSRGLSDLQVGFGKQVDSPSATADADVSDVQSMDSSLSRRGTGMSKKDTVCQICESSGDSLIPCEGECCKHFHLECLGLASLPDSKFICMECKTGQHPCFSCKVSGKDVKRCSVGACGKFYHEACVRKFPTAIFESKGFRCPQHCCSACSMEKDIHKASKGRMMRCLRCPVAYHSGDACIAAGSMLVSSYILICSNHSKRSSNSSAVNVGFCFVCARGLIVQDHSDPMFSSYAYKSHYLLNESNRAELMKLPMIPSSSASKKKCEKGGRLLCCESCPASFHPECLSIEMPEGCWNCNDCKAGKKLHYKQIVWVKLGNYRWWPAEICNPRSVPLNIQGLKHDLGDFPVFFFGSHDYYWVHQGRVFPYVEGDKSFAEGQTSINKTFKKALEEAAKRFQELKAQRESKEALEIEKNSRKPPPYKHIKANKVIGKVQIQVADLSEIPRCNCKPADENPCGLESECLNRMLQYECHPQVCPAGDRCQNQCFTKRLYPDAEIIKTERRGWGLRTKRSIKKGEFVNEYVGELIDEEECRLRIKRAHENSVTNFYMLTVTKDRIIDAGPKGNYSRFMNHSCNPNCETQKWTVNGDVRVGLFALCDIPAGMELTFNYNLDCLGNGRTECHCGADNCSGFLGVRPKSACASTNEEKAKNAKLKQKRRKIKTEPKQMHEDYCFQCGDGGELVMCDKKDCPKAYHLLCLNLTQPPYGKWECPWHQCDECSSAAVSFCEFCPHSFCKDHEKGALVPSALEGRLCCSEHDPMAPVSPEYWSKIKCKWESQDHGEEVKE
Experiment: Induction of NSD3 degradation in human A549 cells measured after 72 hrs by Western blot analysis
Type: cell-based
Quantity name: pEC50
In textbook form, pEC50 equals minus log to base ten of the concentration in mol/L.

Prompt: Answer with the recorded pEC50 for the compound listed here: `Cc1cc(CNCCCCCCCCCCC(=O)N[C@H](C(=O)N2C[C@H](O)C[C@H]2C(=O)N[C@@H](C)c2ccc(-c3scnc3C)cc2)C(C)(C)C)cc(C)c1-c1ncn(C)c1-c1ccnc2cc(F)ccc12`
Response: 6.03
